protocol: yeast display, Sf9 membrane polyspecificity reagent, FACS + sequencing; frameworks hold sequencing errors
propertyName: polyreactivity (PSR sort gate)

QVQLVESGGGLVQAGCSLRLSCAASGSTFRRYAMGWYRQAPGKERELVAAISGGGTSTYYADSVEGRFTISRDNAKNTVDLQMNSLKPEDTAVYYCNAKTYYARYDYWGQGTQVSVSS high polyreactivity
QVQLVESGGGLVQAGGSLRLSCAASGGIFQENAMGWYRQAPGKERELVATITRSTGSTYYADSVKGRFTISRDNAKNTVYLQMNSLKPEDTAVYYCAARRRSQYYRYAYKYDYWGQGTQVTVSS high polyreactivity
QVQLVDSGGGLVQAGGSLRLSCAASGRIFRDNCMVCYRQAPGKERELVAAIRRSGGSTYYADSVKGRFTISRDNAKNSVYLQMNSLIPEDTAVYYCATPPYPGREYWGQGSQVTVSS high polyreactivity
QVQLVESGGGLVQAGGSLRLSCAASGSISAGNAMGWYRQAPGKERDLVAAISGSGGSTYYADSVKGRFTISRYNAKNTVYLQMNRLKPEDTAVYYCAARGGYRLRYIPYVRYDYWGQGTQVTVSS high polyreactivity
QVQLVESGGGLVQAGGSLRLSCAASGFIFKPYDMGWYRQARGKERELVAAISWTGTSTYYADSVKGRFTISRDNAKNTVYLQMNSLKPEDTAVYYCAADFYGGFAHEYWGQGTQVTVSS low polyreactivity
QVQLVESGGGLVQAGGSLRKSCAASGSIFADKAMGWYRQAPGKERELVATISAPDGSTYYADYVKGRFTISGDNAKNTVYLQMNSLKPEDTAVYYCAASGYYILSWRYDYWGQGTQVTVSS low polyreactivity
QGQLGESGGGLVQAGGSLRLSSPASGIIFWDYAMAWSRQSPGNEREFVAAINTSGGTTTYADSVKGRFTISRDNAKNTVYLQMNSLKPEDTAVYYCAADPWGYYSYAYYYWGQGTQVTVSS low polyreactivity
QVQLVESGGGLVQAGGSLRLSCAASGIIIRYYGMGWYRQAPGKERELVARIRWTGGSTYYADSVKGRFTISRDNAKNTVYLQMNSLKPEDTAVYYCAAAWWSYKFNRDFDYWGQGTQVTVSS low polyreactivity
QVQLVESGGGLVQAGGRLRLSCAASGRTFRYNAMGGSRQAPGKERELVAAISGGDSTYYADSEKGRFTFSRDNAKNTVYLQMNCLKPEDTAVYYCAGRTYRRRVSQSVSRNDYWGQGTQVTVSS high polyreactivity
QVQLVESGGGLVQAGGSLRLSCAASGRIFGVYAMGWYRQAPGKERELVAAIRGGGSTKYADSVKGRFTISRDNAKNTVYLQMNSLKPEDTAVYYCAARKRYYKHDYWGQGTQVTVSS low polyreactivity

--- query ---
Query :: Please look at this sequence and report its polyreactivity (PSR sort gate): QVQLVESGGGLVQAGGSLRLSCAASGSILVGNAMGWYRQAPGIERELVAGSSESDGSTNYADSGKGRFTISRDKSKNTVYLPMNSLKPEETAVYYRAADIWTSGDIPYDYWGQGTQVTVSS
Result :: low polyreactivity
